Target: T1, human VEGF (hVEGF) (human, UniProt P15692 181-395)
T1 construct: also called VEGF-A
T1 sequence: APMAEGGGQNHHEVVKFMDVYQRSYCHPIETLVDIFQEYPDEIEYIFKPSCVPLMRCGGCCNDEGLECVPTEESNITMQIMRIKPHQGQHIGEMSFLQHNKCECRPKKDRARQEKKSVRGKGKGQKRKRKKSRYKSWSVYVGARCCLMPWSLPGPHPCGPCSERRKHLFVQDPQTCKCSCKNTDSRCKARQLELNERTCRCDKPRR
Experiment: SPR single-cycle
result type: kon (M⁻¹ s⁻¹)
# output: bare number, implied unit M⁻¹ s⁻¹

# example entries with known answers
- binder: "G6.31 HC-T73N (Fab, name in Kabat numbering, V domains shown, Fab) VH: EVQLVESGGGLVQPGGSLRLSCAASGFTISDYWIHWVRQAPGKGLEWVAGITPAGGYTYYADSVKGRFTISADNSKNTAYLQMNSLRAEDTAVYYCARFVFFLPYAMDYWGQGTLVTVSS VL: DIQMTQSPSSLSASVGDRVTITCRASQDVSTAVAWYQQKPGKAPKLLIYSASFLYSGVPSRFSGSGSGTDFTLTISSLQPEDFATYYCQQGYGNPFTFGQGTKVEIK"
  result type: "kon"
  readout number: 678000
- binder: "G6.31 HC-T57E (Fab, name in Kabat numbering, V domains shown, Fab) VH: EVQLVESGGGLVQPGGSLRLSCAASGFTISDYWIHWVRQAPGKGLEWVAGITPAGGYEYYADSVKGRFTISADTSKNTAYLQMNSLRAEDTAVYYCARFVFFLPYAMDYWGQGTLVTVSS VL: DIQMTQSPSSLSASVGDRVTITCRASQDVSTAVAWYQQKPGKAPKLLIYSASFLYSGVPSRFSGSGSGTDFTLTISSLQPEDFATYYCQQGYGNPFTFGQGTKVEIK"
  result type: "kon"
  readout number: "1.93e+06"

I would be grateful if you could share the reported kon for G6.31 LC-F83A (Fab, V domains shown, Fab) VH: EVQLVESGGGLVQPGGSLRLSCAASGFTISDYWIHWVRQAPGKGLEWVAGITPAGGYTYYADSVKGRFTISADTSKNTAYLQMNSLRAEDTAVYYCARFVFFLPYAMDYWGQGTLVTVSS VL: DIQMTQSPSSLSASVGDRVTITCRASQDVSTAVAWYQQKPGKAPKLLIYSASFLYSGVPSRFSGSGSGTDFTLTISSLQPEDAATYYCQQGYGNPFTFGQGTKVEIK . 855000
